# key: entry, value: EC50
Target: KRAS-G12D protein (Homo sapiens, UniProt P01116, G12D)
Sequence (P01116 1-188 isoform P01116-2 G12D): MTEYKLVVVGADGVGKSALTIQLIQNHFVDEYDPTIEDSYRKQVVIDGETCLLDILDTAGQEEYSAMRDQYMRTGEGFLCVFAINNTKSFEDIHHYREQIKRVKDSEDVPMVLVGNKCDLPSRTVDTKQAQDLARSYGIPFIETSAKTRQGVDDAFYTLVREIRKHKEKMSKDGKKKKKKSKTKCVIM
Assay: SOS-mediated nucleotide exchange assay (BODIPY-GDP / Tb-streptavidin TR-FRET)
Format: biochemical
*1 amine or outer side, *2 acyl side, *3 side chain or, on linkers, in order; H or OH if unused. Where a SMILES comes first, the peptide text is derived from it. [ ]: non-standard residue; d: D form. Ala(pyrimidin-5-yl) = N[C@@H](Cc1cncnc1)C(=O)O; Phe(2-F) = N[C@@H](Cc1ccccc1F)C(=O)O; X31 = O=C([C@H](CCC1CC1)N[*:1])[*:2]; X1 = O=C(C12CC(CN[*:1])(C1)C2)[*:2]; NMeF = CN[C@@H](Cc1ccccc1)C(=O)O; PhLac = O=C(O)[C@@H](O)Cc1ccccc1; 3Pal = N[C@@H](Cc1cccnc1)C(=O)O; Ahp(2) = CCCCC[C@H](N)C(=O)O; Cba = N[C@@H](CC1CCC1)C(=O)O; hLeu = CC(C)CC[C@H](N)C(=O)O; NMeA = CN[C@@H](C)C(=O)O
Field: numeric (nM). Do not append units.

Some solved cases for reference:
>  <compound>
C[C@H]1C(=O)N[C@@H](Cc2cncnc2)C(=O)N[C@@H](CC2CCC2)C(=O)N[C@@H](Cc2ccccc2F)C(=O)N[C@@H](CCC2CC2)C(=O)N(C)[C@@H](Cc2ccccc2)C(=O)NCC23CC(C2)(C3)C(=O)O[C@@H](Cc2ccccc2)C(=O)N1C [compound 115] (cyclo([Cba][Phe(2-F)][X31][NMeF][X1][PhLac][NMeA][Ala(pyrimidin-5-yl)]))

>  <assay_system>
KRAS-G12D protein (Homo sapiens, UniProt P01116, G12D)

>  <value_kind>
EC50

>  <unit_abbreviation>
nM

>  <data_value>
4

$$$$
>  <compound>
CC(C)CC[C@@H]1NC(=O)[C@H](Cc2ccccc2F)NC(=O)[C@H](CC2CCC2)NC(=O)[C@H](Cc2cncnc2)NC(=O)[C@H](C)N(C)C(=O)[C@H](Cc2ccccc2)OC(=O)C23CC(CNC(=O)[C@H](Cc4ccccc4)N(C)C1=O)(C2)C3 [compound 134] (cyclo([Cba][Phe(2-F)][hLeu][NMeF][X1][PhLac][NMeA][Ala(pyrimidin-5-yl)]))

>  <assay_system>
KRAS-G12D protein (Homo sapiens, UniProt P01116, G12D)

>  <value_kind>
EC50

>  <unit_abbreviation>
nM

>  <data_value>
6.47

$$$$

Reported EC50 for KRAS-G12D protein (Homo sapiens, UniProt P01116, G12D), given CCCCC[C@@H]1NC(=O)[C@H](Cc2ccc(OC)cc2)NC(=O)[C@H](CC2CCC2)NC(=O)[C@H](Cc2cccnc2)NC(=O)[C@H](C)N(C)C(=O)[C@H](Cc2ccccc2)OC(=O)C23CC(CNC(=O)[C@H](Cc4ccccc4)N(C)C1=O)(C2)C3 [compound 227] (cyclo([3Pal][Cba]Y(Me)[Ahp(2)][NMeF][X1][PhLac][NMeA])) ? 37.9
